biological target: Group IIA secretory phospholipase A2 (Homo sapiens); assay: Compound was measured for the inhibitory activity against secretory-phospholipase A2 (s-PLA2)
pIC50: −log10 of the molar value.
READOUT_NAME: pIC50

compound_structure_string=CCCCCCCCCCCCCCCCCCOP(=O)(O)c1cccc2ccc(C(=O)O)cc12 readout_name=pIC50 result_value=5.41

----------
molecular target: Group IIA secretory phospholipase A2 (Homo sapiens); experiment: Compound was measured for the inhibitory activity against Secretory phospholipase A 2 (s-PLA2)
READOUT_NAME: IC50 (µM)

compound_structure_string=O=C(O)c1ccc2cccc(C(=O)C(F)(F)F)c2c1 readout_name=IC50 comparator== result_value=2.4
compound_structure_string=CCCCCCCCCCOP(=O)(O)c1cc(OCc2ccccc2)ccc1/C=C/C(=O)O readout_name=IC50 comparator== result_value=4.5
compound_structure_string=CCCCCCCCOP(=O)(O)c1cccc2ccc(C(=O)O)cc12 readout_name=IC50 comparator=> result_value=200
compound_structure_string=CCCCCCCOc1ccc(C(=O)O)cc1CC(=O)C(F)(F)F readout_name=IC50 comparator== result_value=1.7
